Each recorded value in this set is attributed to the supplement of paper PMC7877785.

- Protocol: self-splicing fitness, log relative to wild type (ln ratio); higher = more splicing; Tetrahymena group I intron in knt gene, E. coli kanamycin selection, DiMSum; sequences stand for … in CUCUCU…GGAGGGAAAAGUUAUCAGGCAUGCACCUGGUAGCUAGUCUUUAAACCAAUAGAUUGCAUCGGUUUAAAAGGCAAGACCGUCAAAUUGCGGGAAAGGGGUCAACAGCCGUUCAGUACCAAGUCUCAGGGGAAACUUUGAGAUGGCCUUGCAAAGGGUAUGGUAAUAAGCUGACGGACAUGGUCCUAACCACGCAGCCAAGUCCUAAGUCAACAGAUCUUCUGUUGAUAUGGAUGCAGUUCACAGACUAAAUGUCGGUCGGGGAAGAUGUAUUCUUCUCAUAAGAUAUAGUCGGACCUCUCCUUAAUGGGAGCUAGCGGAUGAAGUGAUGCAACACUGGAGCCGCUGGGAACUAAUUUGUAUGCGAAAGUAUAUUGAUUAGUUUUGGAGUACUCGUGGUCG;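 further: selection with 25 µg/mL kanamycin versus none on LB agar overnight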
- Assay Context: 30 °C
Can you tell me self-splicing fitness (ln) for the items I'm about to list?

self-splicing fitness (ln) lookup needed for AACGAGCAAUAUUACGCCUC , thanks.
-2.71

Please report the recorded self-splicing fitness (ln) for GGGGAGCAAUAUUACGUGGA .
-2.04

Tell me the measured self-splicing fitness (ln) of GUGAAGCAAUAUUACGUACC , please.
-1.07

Return reported self-splicing fitness (ln); argument: GACCAGCAAUAUUACGGGUU
-4.24

// lookup self-splicing fitness (ln) for UUCGAGCAAUAUUACGCUUG
-3.26

Could you share which self-splicing fitness (ln) value was measured for AGGAAGCAAUAUUACGGCAC ?
-1.55

What does the data say about its self-splicing fitness (ln)? Entry: UGACAGCAAUAUUACGUCCU
-0.124

Which self-splicing fitness (ln) reading was recorded for the sequence AUGAAGCAAUAUUACGUUAC ?
-1.96

###

- Protocol: self-splicing fitness, log relative to wild type (ln ratio); higher = more splicing; Tetrahymena group I intron in knt gene, E. coli kanamycin selection, DiMSum; sequences stand for … in CUCUCU…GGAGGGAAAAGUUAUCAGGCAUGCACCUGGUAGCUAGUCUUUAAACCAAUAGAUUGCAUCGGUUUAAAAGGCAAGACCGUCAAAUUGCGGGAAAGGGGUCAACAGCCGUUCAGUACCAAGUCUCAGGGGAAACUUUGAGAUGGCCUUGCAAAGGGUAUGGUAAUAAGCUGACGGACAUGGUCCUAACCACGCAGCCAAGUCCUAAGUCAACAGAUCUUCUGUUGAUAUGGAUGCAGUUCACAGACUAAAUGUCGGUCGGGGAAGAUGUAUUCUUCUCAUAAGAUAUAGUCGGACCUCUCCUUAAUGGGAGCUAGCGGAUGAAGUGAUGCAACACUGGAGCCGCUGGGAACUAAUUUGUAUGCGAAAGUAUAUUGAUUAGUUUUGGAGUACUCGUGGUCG
- Assay Context: 30 °C
Readout Label: self-splicing fitness (ln)
Format: numeric value only, no unit, no commentary.

For AGCGAGCAAUAUUACGAGUC , what is its reported self-splicing fitness (ln)?
-3.91

Using the record for ACUAAGCAAUAUUACGCAUG , report its self-splicing fitness (ln).
-2.31

Which self-splicing fitness (ln) is listed for GUCCAGCAAUAUUACGAGAC ?
-3.46

Consider the sequence AAGGAGCAAUAUUACGUUUG and give its measured self-splicing fitness (ln).
-3.57

Requested read-out: self-splicing fitness (ln). Entry: GUGAAGCAAUAUUACGCCGU
-1.23

Please give the measured self-splicing fitness (ln) for this sequence: CGUGAGCAAUAUUACGUGAG
-0.77

Any idea what its self-splicing fitness (ln) is? The sequence is AGUUAGCAAUAUUACGUUUU
-3.11

// self-splicing fitness (ln) lookup, key: GGCGAGCAAUAUUACGCAUC
-2.15

Returns the measured self-splicing fitness (ln) for the input sequence. Input: CUGAAGCAAUAUUACGCAAU
-3.09

Return reported self-splicing fitness (ln); argument: UACUAGCAAUAUUACGAUCC
-3.14

Look at this sequence and give its reported self-splicing fitness (ln). CCGCAGCAAUAUUACGAAUA
-3.37

Reported self-splicing fitness (ln), sequence AAGGAGCAAUAUUACGUAUG : ____
-3.31

I am curious: what self-splicing fitness (ln) value has been reported for AGCCAGCAAUAUUACGGACU ?
-1.93

Please look up its self-splicing fitness (ln): UGCUAGCAAUAUUACGACCU
-0.548

Quick one: self-splicing fitness (ln) of ACAAAGCAAUAUUACGUUCC ?
-2.06

// lookup self-splicing fitness (ln) for GGAAAGCAAUAUUACGGAUU
-1.93
